Biological target: Sodium-dependent dopamine transporter (Rattus norvegicus, UniProt P23977)
Sequence (P23977 whole entry): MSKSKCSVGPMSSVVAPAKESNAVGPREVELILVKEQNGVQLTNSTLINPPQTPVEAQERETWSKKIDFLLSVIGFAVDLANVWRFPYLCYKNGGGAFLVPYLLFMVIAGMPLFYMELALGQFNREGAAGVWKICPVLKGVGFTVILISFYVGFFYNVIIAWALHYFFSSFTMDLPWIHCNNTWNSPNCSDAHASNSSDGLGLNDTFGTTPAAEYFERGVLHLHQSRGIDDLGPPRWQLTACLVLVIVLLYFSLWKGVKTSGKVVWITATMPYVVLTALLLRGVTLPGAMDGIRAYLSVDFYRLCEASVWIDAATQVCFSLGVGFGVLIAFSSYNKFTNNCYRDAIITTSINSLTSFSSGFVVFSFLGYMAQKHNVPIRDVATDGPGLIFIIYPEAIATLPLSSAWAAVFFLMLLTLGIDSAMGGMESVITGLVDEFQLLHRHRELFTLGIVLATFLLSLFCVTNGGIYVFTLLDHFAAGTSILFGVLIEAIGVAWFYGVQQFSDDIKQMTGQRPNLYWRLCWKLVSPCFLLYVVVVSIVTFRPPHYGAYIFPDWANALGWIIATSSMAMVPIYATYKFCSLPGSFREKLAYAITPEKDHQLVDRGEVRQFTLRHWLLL
assay.endpoint: pIC50
Scale explanation: pIC50 corresponds to minus log10 of a concentration expressed in moles per litre.

COC(=O)[C@@H]1C2CC[C@H](C[C@@H]1c1ccc(I)cc1)N2
9.16
CCc1ccc([C@H]2C[C@H]3CCC(C2C(=O)OC)N3C)cc1 (some centres undefined)
7.26
COC(=O)C1C2CCC(C[C@@H]1OC(=O)c1ccccc1)N2 (some centres undefined)
6.69
CCc1ccc([C@H]2C[C@H]3CCC(N3)[C@H]2C(=O)OC)cc1
7.30
CC(C)OC(=O)[C@@H]1C2CC[C@H](C[C@@H]1c1ccc(I)cc1)N2
8.97
CC(C)OC(=O)C1C2CC[C@H](C[C@@H]1c1ccc(I)cc1)N2C (some centres undefined)
9.37
COC(=O)C1C2CCC(C[C@@H]1c1ccccc1)N2 (some centres undefined)
7.51
COC(=O)C1C2CCC(C[C@@H]1c1ccc(F)cc1)N2 (some centres undefined)
8.36

Req: Quick check: pIC50 on Sodium-dependent dopamine transporter (Rattus norvegicus, UniProt P23977), item COC(=O)C1C2CCC(C[C@@H]1c1ccc(Cl)cc1)N2 (some centres undefined) ?
Resp: 9.21

---

Molecular target: Norepinephrine transporter (Rattus norvegicus, UniProt Q9WTR4)
Sequence (Q9WTR4 whole entry): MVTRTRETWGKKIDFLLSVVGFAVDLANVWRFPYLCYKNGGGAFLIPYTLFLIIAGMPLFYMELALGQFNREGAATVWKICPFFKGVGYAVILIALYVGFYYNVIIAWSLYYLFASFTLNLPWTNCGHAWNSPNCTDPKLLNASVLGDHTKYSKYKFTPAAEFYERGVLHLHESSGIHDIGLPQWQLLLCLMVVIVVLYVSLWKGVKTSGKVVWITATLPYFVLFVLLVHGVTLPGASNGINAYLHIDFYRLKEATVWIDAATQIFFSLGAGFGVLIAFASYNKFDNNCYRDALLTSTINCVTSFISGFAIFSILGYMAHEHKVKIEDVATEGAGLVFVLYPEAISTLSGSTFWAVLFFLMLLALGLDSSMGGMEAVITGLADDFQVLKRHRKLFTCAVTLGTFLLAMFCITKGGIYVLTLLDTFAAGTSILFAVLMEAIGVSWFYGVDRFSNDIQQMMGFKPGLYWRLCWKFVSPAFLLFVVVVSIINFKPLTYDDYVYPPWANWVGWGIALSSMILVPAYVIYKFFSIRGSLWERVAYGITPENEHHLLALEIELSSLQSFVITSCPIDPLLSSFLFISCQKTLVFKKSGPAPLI
Each record is given Condition met if its reported IC50 is strictly below 40 nM. Records at or above 40 nM are given Condition not met.

Before answering, review these 6 worked examples.
COC(=O)C1C2CCC(C[C@@H]1c1ccc(F)cc1)N2 (stereo partly specified)
Condition met
CCc1ccc([C@H]2C[C@H]3CCC(N3)[C@H]2C(=O)OC)cc1
Condition not met
CCc1ccc([C@H]2C[C@H]3CCC(C2C(=O)OC)N3C)cc1 (stereo partly specified)
Condition not met
CC(C)OC(=O)C1C2CC[C@H](C[C@@H]1c1ccc(I)cc1)N2C (stereo partly specified)
Condition not met
COC(=O)C1C2CCC(C[C@@H]1OC(=O)c1ccccc1)N2 (stereo partly specified)
Condition not met
CC(C)OC(=O)[C@@H]1C2CC[C@H](C[C@@H]1c1ccc(I)cc1)N2
Condition not met

Req: Item COC(=O)[C@@H]1C2CC[C@H](C[C@@H]1c1ccc(I)cc1)N2 : IC50 beneath 40 nM, strictly?
Resp: Condition met

Req: Hello, I'm reviewing records and need to know if IC50 of COC(=O)[C@H]1[C@@H](c2ccc(F)cc2)C[C@H]2CC[C@H]1N2C is below 40 nM. Could you check?
Resp: Condition not met

Req: Is it true that IC50 reported for COC(=O)C1C2CCC(C[C@@H]1c1ccc(Cl)cc1)N2 (stereo partly specified) is less than 40 nM?
Resp: Condition met

Req: I'd appreciate it if you could check whether COC(=O)C1C2CC[C@H](C[C@@H]1c1ccc(I)cc1)N2C (stereo partly specified) has IC50 smaller than 40 nM.
Resp: Condition met

Req: Bench note: check whether COC(=O)C1C2CCC(C[C@@H]1c1ccccc1)N2 (stereo partly specified) shows IC50 below 40 nM
Resp: Condition not met

---

pIC50 reference
Target: Sodium-dependent serotonin transporter (Rattus norvegicus, UniProt P31652)
Sequence (P31652 whole entry): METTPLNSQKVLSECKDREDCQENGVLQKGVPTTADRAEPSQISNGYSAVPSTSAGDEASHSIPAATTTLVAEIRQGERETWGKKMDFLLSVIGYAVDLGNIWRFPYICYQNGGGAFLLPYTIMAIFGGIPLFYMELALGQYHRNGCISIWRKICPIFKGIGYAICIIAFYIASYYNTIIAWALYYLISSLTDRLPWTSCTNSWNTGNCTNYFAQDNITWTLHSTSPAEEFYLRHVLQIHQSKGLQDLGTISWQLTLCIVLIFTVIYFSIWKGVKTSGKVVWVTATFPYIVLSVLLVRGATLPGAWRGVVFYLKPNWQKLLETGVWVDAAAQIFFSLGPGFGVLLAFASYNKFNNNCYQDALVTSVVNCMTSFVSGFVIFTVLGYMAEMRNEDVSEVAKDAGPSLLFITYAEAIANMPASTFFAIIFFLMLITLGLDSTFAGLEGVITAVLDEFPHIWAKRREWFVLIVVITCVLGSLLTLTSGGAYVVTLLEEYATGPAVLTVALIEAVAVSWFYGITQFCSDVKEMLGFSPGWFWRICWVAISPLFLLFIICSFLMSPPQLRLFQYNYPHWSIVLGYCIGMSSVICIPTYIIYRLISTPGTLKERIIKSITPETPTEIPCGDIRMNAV
Conceptually, pIC50 converts a concentration in mol/L into minus its log10.

Field: example entries. Status: answers known.
COC(=O)C1C2CCC(C[C@@H]1c1ccc(Cl)cc1)N2 (stereo not given in full)
8.38
COC(=O)[C@@H]1C2CC[C@H](C[C@@H]1c1ccc(I)cc1)N2
9.44
COC(=O)C1C2CCC(C[C@@H]1c1ccc(F)cc1)N2 (stereo not given in full)
7.16
CC(C)OC(=O)C1C2CC[C@H](C[C@@H]1c1ccc(I)cc1)N2C (stereo not given in full)
7.18
COC(=O)C1C2CC[C@H](C[C@@H]1c1ccc(I)cc1)N2C (stereo not given in full)
8.38
COC(=O)C1C2CCC(C[C@@H]1OC(=O)c1ccccc1)N2 (stereo not given in full)
6.90

Req: Report pIC50 for CCc1ccc([C@H]2C[C@H]3CCC(N3)[C@H]2C(=O)OC)cc1 please.
Resp: 8.09

Req: What measured pIC50 goes with COC(=O)C1C2CCC(C[C@@H]1c1ccccc1)N2 (stereo not given in full) ?
Resp: 6.81

Req: # get_value(readout='pIC50', item= CCc1ccc([C@H]2C[C@H]3CCC(C2C(=O)OC)N3C)cc1 (stereo not given in full) )
Resp: 7.55

Req: Look up pIC50: CC(C)OC(=O)[C@@H]1C2CC[C@H](C[C@@H]1c1ccc(I)cc1)N2
Resp: 8.44
